System: preferentially upregulated genes in LV, SP, LN
Assay: Z-score-based differential gene expression analysis (adjuvant group- or adjuvant-associated genes, 40 module mapping, TargetMine annotation)
Assay type: in vivo, C57BL/6 mice
Settings: ID, LV, sample x1
readout name: Pml 1448757_at (Group G1, Modules 20)
In your answer, state the number alone without any accompanying words.

Record excerpt, results attached:
compound | Pml 1448757_at (Group G1, Modules 20)
Cc1ccc2c(=O)c3cccc(CC(=O)O)c3oc2c1C | 1.62
CCOCc1nc2c(N)nc3ccccc3c2n1CC(C)(C)O | 1.77
Nc1nc2c(ncn2[C@@H]2O[C@@H]3COP(=O)(O)O[C@H]4[C@@H](O)[C@H](n5cnc6c(N)ncnc65)O[C@@H]4COP(=O)(O)O[C@@H]2[C@@H]3O)c(=O)[nH]1 [cGAMP, Cyclic [G(2′,5′)pA(3′,5′)p]] | 2.13

Entry Nc1nc2c(ncn2[C@@H]2O[C@@H]3COP(=O)(O)O[C@H]4[C@@H](O)[C@H](n5cnc6c(=O)[nH]c(N)nc65)O[C@@H]4COP(=O)(O)O[C@H]3[C@H]2O)c(=O)[nH]1 [cdiGMP, Cyclic diguanylate monophosphate] ; assay system preferentially upregulated genes in LV, SP, LN; Pml 1448757_at (Group G1, Modules 20) recorded at 1.41
